tested on: HEK293 cells; experiment: HEK293 VLCFA-LPC IC50 determination (13C-labeled C26:0 LPC by UHPLC/MS); format: cell-based, human; conditions: Homo sapiens, HEK293, 48 h, average of one or more replicates; 13C-labeled C26:0 LPC, 48 hours; read-out: Average HEK293 IC50
pIC50 values, listed per item
Field pIC50 (float): negative decimal logarithm of the concentration in molar.

What the record says about Cc1ncc(-n2ccc(NC(=O)C3(c4ccccc4F)CC3)n2)cc1F : pIC50 is 6.36

Next up:
What the record says about Cc1cc(-n2ccc(NC(=O)C3(c4ccccc4F)CC3)n2)cnc1F : pIC50 is 7.19

###

system: HEK293 cells; assay: HEK293 VLCFA-LPC IC50 determination (13C-labeled C26:0 LPC by UHPLC/MS); format: cell-based, human; settings: Homo sapiens, HEK293, 48 h, average of one or more replicates; 13C-labeled C26:0 LPC, 48 hours; read-out: Average HEK293 IC50
IC50 values, listed per item
Provide only the numeric value, understood in nM.

Example compounds with recorded IC50:
Short answer on HEK293 cells for O=C(Nc1nn(-c2cncc(F)c2)cc1F)C1(c2ccccc2)CC1 [Compound 445] , IC50: 1400

Short answer on HEK293 cells for O=C(Nc1ccn(-c2ccccc2)n1)C1(c2ccccc2)CC1(F)F (single isomer, unassigned) [Compound 366] , IC50: 210

Further cases:
Short answer on HEK293 cells for Nc1ccc(-n2ccc(NC(=O)C3(c4ccccc4F)CC3)n2)cc1F [Compound 387] , IC50: 1100

Short answer on HEK293 cells for O=C(Nc1nn(-c2ccnc(F)c2)cc1F)C1(c2ccccc2F)CC1 [Compound 365] , IC50: 410

Short answer on HEK293 cells for O=C(Nc1ccn(-c2ccc(F)nc2)n1)C1(c2ccccc2F)CC1 [Compound 377] , IC50: 23

###

system: HEK293 cells; assay: HEK293 VLCFA-LPC IC50 determination (13C-labeled C26:0 LPC by UHPLC/MS); type: cell-based, human; conditions: Homo sapiens, HEK293, 48 h, average of one or more replicates; 13C-labeled C26:0 LPC, 48 hours; read-out: Average HEK293 IC50
pIC50: −log10 of the molar value.
Would you mind labelling by pIC50? At or over 6 is true (1), under is false (0).

Hi, just wondering whether COc1cc(-n2ccc(NC(=O)C3(c4ccccc4F)CC3)n2)cnn1 [Compound 447] shows pIC50 of 6 or higher.
false (0)

Hi, just wondering whether O=C(Nc1ccn(-c2ccccc2)n1)C1(c2ccccc2)CC1CO (stereo not drawn) [Compound 444] shows pIC50 of 6 or higher.
true (1)

Hi, just wondering whether O=C(Nc1ccn(-c2ccc(Cl)cn2)n1)C1(c2ccccc2F)CC1 [Compound 398] shows pIC50 of 6 or higher.
false (0)

Hi, just wondering whether COc1cncc(F)c1-n1ccc(NC(=O)C2(c3ccccc3F)CC2)n1 [Compound 345] shows pIC50 of 6 or higher.
false (0)

Hi, just wondering whether O=C(Nc1ccn(-c2ncc(F)cc2F)n1)C1(c2ccccc2F)CC1 [Compound 391] shows pIC50 of 6 or higher.
true (1)

Hi, just wondering whether COc1ncncc1-n1ccc(NC(=O)C2(c3ccccc3F)CC2)n1 [Compound 353] shows pIC50 of 6 or higher.
false (0)

FYI, the data here is from patent US20180251431A1.
